Target: GDP-bound KRAS wild-type protein (Homo sapiens, UniProt P01116)
Sequence (P01116 whole entry): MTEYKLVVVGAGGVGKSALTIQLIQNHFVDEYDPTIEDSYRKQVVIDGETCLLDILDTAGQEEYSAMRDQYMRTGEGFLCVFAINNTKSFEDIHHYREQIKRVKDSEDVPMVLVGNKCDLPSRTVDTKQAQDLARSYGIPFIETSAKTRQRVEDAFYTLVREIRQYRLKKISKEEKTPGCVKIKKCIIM
Assay: Binding to KRAS by surface plasmon resonance (SPR), Single Cycle Kinetics
Conditions: SPR Single Cycle Kinetics, GDP-bound KRAS wild-type protein, 1:1 binding model; read-out: KRAS KD
Where a SMILES comes first, the peptide text is derived from it. Bridges are numbered along the chain shown (N, C = ends). [ ]: non-standard residue; d: D form. The star is where a group is joined. hPhe(3-Cl-4-CF3) = N[C@@H](CCc1ccc(C(F)(F)F)c(Cl)c1)C(=O)O; NPrPhe(4-CF3) = CCCN[C@@H](Cc1ccc(C(F)(F)F)cc1)C(=O)O; NEtPhe(4-Me) = CCN[C@@H](Cc1ccc(C)cc1)C(=O)O; NMeGly(cPent) = CN[C@H](C(=O)O)C1CCCC1; NMeD = CN[C@@H](CC(=O)O)C(=O)O; NMeL = CN[C@@H](CC(C)C)C(=O)O; hPip = O=C(O)[C@@H]1CCCCCN1; Morpholide = C1CN(*)CCO1; Ac5c = NC1(C(=O)O)CCCC1; NEtG = CCNCC(=O)O; Sar = CNCC(=O)O
Provide the recorded pKd for the entries that follow.
Reminder that pKd means the negative base-10 logarithm of the concentration expressed in mol/L.

[Q] Write down the reported pKd of CC[C@H](C)[C@@H]1NC(=O)[C@H](CC(C)C)N(C)C(=O)C[C@@H](C(=O)N2CCOCC2)N(C)C(=O)[C@H](C2CCCC2)N(C)C(=O)C2(CCCC2)NC(=O)[C@@H]2CCCN2C(=O)[C@H](CCc2ccc(C(F)(F)F)c(Cl)c2)NC(=O)CN(CC)C(=O)[C@H](Cc2ccc(C)cc2)N(CC)C(=O)CN(CC)C(=O)CN(C)C1=O [PP0030] ([NMeL]I[Sar][NEtG][NEtPhe(4-Me)][NEtG][hPhe(3-Cl-4-CF3)]P[Ac5c][NMeGly(cPent)][NMeD]-Morpholide; lactam N-11) , test system: GDP-bound KRAS wild-type protein (Homo sapiens, UniProt P01116).
[A] 8.11

[Q] Would you mind doing CC[C@H](C)[C@@H]1NC(=O)[C@@H]2CCC/C=C/c3ccc(cc3)C[C@@H](C(=O)N(C)CC(=O)N[C@@H](CCc3ccc(Cl)c(Cl)c3)C(=O)N3CCC[C@H]3C(=O)NC3(CC(C)(C)C3)C(=O)N(C)[C@@H](C3CCCC3)C(=O)N(C)[C@H](C(=O)N3CCCC3)CC(=O)N2C)N2CC/C=C\C[C@@H](C2=O)N(C)C(=O)CN(C)C1=O as well?
[A] 9.60

[Q] For CCCN1C(=O)CN(C)C(=O)CN(C)C(=O)[C@H]([C@@H](C)CC)NC(=O)[C@@H]2CCCCCN2C(=O)C[C@@H](C(=O)N2CCOCC2)N(C)C(=O)[C@H](C2CCCC2)N(C)C(=O)C2(CCCC2)NC(=O)[C@@H]2CCCN2C(=O)[C@H](CCc2ccc(C(F)(F)F)c(Cl)c2)NC(=O)CN(C)C(=O)[C@@H]1Cc1ccc(C(F)(F)F)cc1 [PP0247] ([hPip]I[Sar][Sar][NPrPhe(4-CF3)][Sar][hPhe(3-Cl-4-CF3)]P[Ac5c][NMeGly(cPent)][NMeD]-Morpholide; lactam N-11) then?
[A] 9.42
